Assayed target: Glycine N-methyltransferase (Homo sapiens) (UniProt Q14749)
Sequence (Q14749 whole entry, looked up): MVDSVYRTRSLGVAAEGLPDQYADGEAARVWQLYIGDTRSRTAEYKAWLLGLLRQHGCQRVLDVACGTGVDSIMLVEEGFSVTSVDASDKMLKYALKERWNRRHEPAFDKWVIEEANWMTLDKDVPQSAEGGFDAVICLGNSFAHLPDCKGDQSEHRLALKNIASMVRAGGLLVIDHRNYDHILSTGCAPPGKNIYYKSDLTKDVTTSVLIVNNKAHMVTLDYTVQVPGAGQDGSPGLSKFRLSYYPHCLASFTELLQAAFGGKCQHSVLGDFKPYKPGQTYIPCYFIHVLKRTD
Assay summary: Primary Screen for Target Class Profiling of Small Molecule Inhibitors of Methyltransferases; also: % is scaled to controls: 0 for no effect and ±100 for the full control effect
Condition context: purified enzyme, MTase-Glo SAH luminescence; measured here: GNMT inhibition; at 40 µM; stronger effect = lower value
Experimental: PI: Matthew D. Hall Ph.D. and Quinlin M. Hanson Ph.D. National Center for Advancing Translational Sciences (NCATS) National Institute of Health (NIH), Rockville, MD […] High-through put screening assays were developed at the National Center for Advancing Translational Science (NCATS) for the enzymes NNMT, PNMT, HNMT, GNMT, COMT, and GAMT. Enzymatic activity was measured as a function of SAM cofactor conversion using the MTase Glo kit (Promega) for all enzymes. […]
About 970 (3.9%) of roughly 25,000 compounds were called active. Not shown: some 8% with an inconclusive outcome. The sample holds actives, similar compounds and a random draw of the others, so the mix is not that of the screen.
# activity change, negative = inhibition per entry
Answer in %, number only, no unit symbol.

INSERT INTO measurements (compound, quantity_kind, numeric_readout) VALUES
  ('Cc1ccc(NC(=O)Cn2nc3n(C(C)C)c(=O)c4ccc(C(=O)NC(C)C)cc4n3c2=O)c(Cl)c1', 'activity change, negative = inhibition', 7.08),
  ('Cc1ccccc1CN1C(=O)c2cc(-c3cccs3)nn2CC1(C)C(=O)NC1CCCCC1 (stereo not given)', 'activity change, negative = inhibition', -0.305),
  ('COc1ccc(C2Cn3nnc(-c4noc(C5CCC5)n4)c3CO2)cc1 (stereo not given)', 'activity change, negative = inhibition', -9.87);

Entry "CC(C)CNc1ccnc(NCc2csc(-c3ccccc3)n2)n1" needs its activity change, negative = inhibition filled in; supply it.
-6.48

Identify the reported activity change, negative = inhibition for the following entry. "CN(C)[C@@H]1C(=O)C(C(N)=O)=C(O)[C@@]2(O)C(=O)C3=C(O)c4c(O)ccc(Cl)c4[C@@H](O)[C@H]3C[C@@H]12"
-24.2
